Origin of values: PubChem BioAssay

# ASSAY INFO: small-molecule microarray binders of probe aWnt5a, primary screen, biochemical, biotinylated probe, 635/667 nm fluorescence (AID 1113);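 also: score merges 667 nm fluorescence intensity with signal-to-noise per printed feature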
# REPORTED CONDITIONS: higher = more signal

| MOLECULE | composite z-score |
| --- | --- |
| OC([C@@H]1CC(c2ccccc2)=NO1)[C@H]1CC(c2ccccc2)=NO1 (some centres undefined) | 0.0317 |
| CN(C)C(=O)[C@]1(Cc2ccccc2N=[N+]=[N-])N=C(c2ccc(OCCCO)cc2)O[C@@H]1c1ccccc1 | -0.329 |
| O=C1OCC=C[C@H]2OC34C=CCN(c5ccc6ccccc6c5)C(=O)[C@H]3N(CCCCCCO)C(=O)[C@@H]4[C@@H]12 (some centres undefined) | -0.152 |
| COc1ccc(C(O)C2C=CC3C(=O)NC(=O)C3N2Nc2ccccn2)c2ccccc12 (centres undefined) | -0.219 |
